Target: Pantothenate synthetase (Mycobacterium tuberculosis (strain ATCC 25618 / H37Rv)) (UniProt P9WIL5)
Sequence (P9WIL5 whole entry, looked up): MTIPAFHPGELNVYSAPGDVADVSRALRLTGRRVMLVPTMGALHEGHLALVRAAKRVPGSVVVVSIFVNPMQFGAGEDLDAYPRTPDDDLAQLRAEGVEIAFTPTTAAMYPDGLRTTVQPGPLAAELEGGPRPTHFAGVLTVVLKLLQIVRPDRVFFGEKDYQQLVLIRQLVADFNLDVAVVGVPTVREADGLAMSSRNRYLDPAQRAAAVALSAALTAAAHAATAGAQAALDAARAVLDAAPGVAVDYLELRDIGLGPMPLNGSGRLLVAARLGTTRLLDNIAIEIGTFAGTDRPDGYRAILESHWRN
Protocol: Coupled enzyme confirmation of inhibitors against recombinant Mtb PanC (AID 375);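 note: 0% = full reaction with vehicle and 100% = no enzyme background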
Condition summary: coupled enzyme assay; at 10 µM, stronger effect = higher value
Reported values of inhibition for individual entries

Compound: Cc1ccc(C)n1-c1ccc(-n2cnnn2)cc1
inhibition / %: 2

Compound: CCc1ccc2oc(-c3cc(N)ccc3Cl)nc2c1
inhibition / %: 2

Compound: CC1CCCN(S(=O)(=O)c2ccc(C(=O)Nc3nnc(-c4ccccc4Cl)o3)cc2)C1 (stereo unspecified)
inhibition / %: 0

Compound: CCC1CCCCN1CCCNC(=O)c1ccc(CS(=O)(=O)Cc2ccccc2F)o1 (stereo unspecified)
inhibition / %: 4

Compound: CCN(CC)Cc1nc2c(c(=O)[nH]1)C1(CCCCC1)Cc1ccccc1-2
inhibition / %: 3

Compound: O=C1CN(C(=O)CN2CCCC2)C(c2ccccc2)c2cc(Br)ccc2N1 (stereo unspecified)
inhibition / %: 0

---

Target: Pantothenate synthetase (Mycobacterium tuberculosis (strain ATCC 25618 / H37Rv))
Protocol: Coupled enzyme confirmation of inhibitors against recombinant Mtb PanC (AID 375);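 note: 0% = full reaction with vehicle and 100% = no enzyme background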
Condition summary: coupled enzyme assay; at 10 µM, stronger effect = higher value
Reported values of inhibition for individual entries

Molecule: CNCCC(Oc1ccc(C(F)(F)F)cc1)c1ccccc1 (stereo unspecified)
Units text: %
inhibition: 4

Molecule: COCCOC(=O)C1=C(C)OC(N)=C(C#N)C1c1ccc2c(c1)OCO2 (stereo unspecified)
Units text: %
inhibition: 0

Molecule: COc1ccccc1C1/C(=C(\O)c2c(C)nc3c(C)cccn23)C(=O)C(=O)N1CCCN(C)C (stereo unspecified)
Units text: %
inhibition: 0

Molecule: CN(C)S(=O)(=O)NC(c1ccccc1)c1ccccc1
Units text: %
inhibition: 4

Molecule: COCc1nnc(NS(=O)(=O)c2ccc(Br)cc2)s1
Units text: %
inhibition: 2

Molecule: COc1ccccc1NC(=O)c1ccc(NC(=O)CSc2nnnn2C)cc1
Units text: %
inhibition: 1

Molecule: Cc1nc2ccccn2c1P(=O)(N1CCCCC1)N1CCCCC1
Units text: %
inhibition: 4

Molecule: Cc1noc(C(=O)Nc2ccc3c(c2)OCO3)c1Cl
Units text: %
inhibition: 0

Molecule: Cn1c(C(=O)NCC2CCCO2)cc2c(=O)[nH]c3ccccc3c21 (stereo unspecified)
Units text: %
inhibition: 8

Molecule: CCCn1nc(NC(=O)c2cccs2)c2cc3cc(OC)ccc3nc21
Units text: %
inhibition: 0

Molecule: CCOc1ccc(NC(=O)CN2CCN(CC(=O)Nc3ccc(F)c(F)c3)CC2)cc1
Units text: %
inhibition: 0

---

Reported values of inhibition for individual entries
Target: Pantothenate synthetase (Mycobacterium tuberculosis (strain ATCC 25618 / H37Rv)) (UniProt P9WIL5)
Protocol: Coupled enzyme confirmation of inhibitors against recombinant Mtb PanC (AID 375);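 note: 0% = full reaction with vehicle and 100% = no enzyme background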
Condition summary: coupled enzyme assay; at 10 µM, stronger effect = higher value
Property name: inhibition (%)

Compound: C/C(NC1CCCC1)=C(/C#N)C(N)=O
Property name: inhibition
Units text: %
Experimental result: 9
//
Compound: COc1ccc(C2C(C#N)=C(C)NC3=C2C(=O)CC(C)(C)C3)c(OC)c1 (stereo unspecified)
Property name: inhibition
Units text: %
Experimental result: 0
//
Compound: CC(NC(=O)c1noc2c1CCCCC2)c1ccccc1 (stereo unspecified)
Property name: inhibition
Units text: %
Experimental result: 0
//
Compound: O=C(NCC1CCCO1)c1ccccc1-c1nc(-c2ccc(Cl)cc2)no1 (stereo unspecified)
Property name: inhibition
Units text: %
Experimental result: 1
//
Compound: CCCCOc1ccc(C(=O)Nc2ccc(N3CCN(C(C)=O)CC3)cc2)cc1
Property name: inhibition
Units text: %
Experimental result: 0
//
Compound: Cc1ccccc1CNS(=O)(=O)c1ccc2c(c1)OCCO2
Property name: inhibition
Units text: %
Experimental result: 0

---

Protocol: MRP1 drug-resistance reversers in H69AR cells – cell-based, doxorubicin co-treatment, pilot screen (AID 601)
Condition summary: H69AR cells + 2 uM doxorubicin, CellTiter-Glo, 72 h; measured here: viability with 2 uM doxorubicin; at 10 µM; stronger effect = lower value
Reported values of viability for individual entries

Compound: O=c1[nH]c(=O)n(CCc2ccccc2)c(O)c1C=NCCN1CCNCC1
Units text: %
viability: 91.3

Compound: CNCC(O)c1ccc(O)cc1 (configuration not stated)
Units text: %
viability: 85.9

Compound: O=C(c1ccncc1)C12CN3CN(CN(C3)C1)C2
Units text: %
viability: 84.4

Compound: c1ccc(C2NCc3ccccc3-n3cccc32)cc1 (configuration not stated)
Units text: %
viability: 78.4

Compound: CN(C)CCc1nc2ccccc2c(=O)n1-c1ccccc1
Units text: %
viability: 91.6

Compound: CCCCn1c(O)c(C(C)=NCCc2ccccc2)c(=O)[nH]c1=O
Units text: %
viability: 95.9

Compound: O=C(CCCOc1ccc(Cl)cc1Cl)N1CCC2(CC1)OCCO2
Units text: %
viability: 81.5

Compound: O=C(c1ccc2nc(-c3ccco3)c(-c3ccco3)nc2c1)N1CCC2(CC1)OCCO2
Units text: %
viability: 82.7

Compound: CCN1c2nc3ccccn3c(=O)c2CC2(C(=O)N(C)C(=O)N(C)C2=O)C1C (configuration not stated)
Units text: %
viability: 90

Compound: CN1CCN(c2nc3ccccc3c(=O)n2-c2ccccc2)CC1
Units text: %
viability: 89.6

Compound: Cc1ccccc1NC1=NCCCS1
Units text: %
viability: 96.1

Compound: C=CCOC(=O)COc1cc(C)cc2oc(=O)c3c(c12)CCC3
Units text: %
viability: 86.7

---

Target: Pantothenate synthetase (Mycobacterium tuberculosis (strain ATCC 25618 / H37Rv)) (UniProt P9WIL5)
Protocol: Coupled enzyme confirmation of inhibitors against recombinant Mtb PanC (AID 375);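 note: 0% = full reaction with vehicle and 100% = no enzyme background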
Condition summary: coupled enzyme assay; at 10 µM, stronger effect = higher value
Reported values of inhibition for individual entries
Property name: inhibition (%)

Compound: CC(=O)N1C(=O)c2cccc3cccc(c23)C(=O)N1C(C)=O
Property name: inhibition
Experimental result: 0
--
Compound: COc1cc(-c2nc(S(=O)(=O)c3ccccc3)c(N3CCOCC3)o2)cc(OC)c1OC
Property name: inhibition
Experimental result: 8
--
Compound: O=C(c1nc2n(n1)C(c1ccc(Cl)cc1)C=C(c1ccccc1)N2)N1CCOCC1 (stereo unspecified)
Property name: inhibition
Experimental result: 0
--
Compound: CC(C)C(=O)Nc1cccc(NC(=O)c2cccnc2)c1
Property name: inhibition
Experimental result: 1
--
Compound: O=C(COc1ccccc1)NCCSCc1ccco1
Property name: inhibition
Experimental result: 0
--
Compound: Cc1ccc(Cn2c(=O)c3ccccc3n3c(CCC(=O)O)nnc23)cc1
Property name: inhibition
Experimental result: 0

---

Reported values of inhibition for individual entries
Target: Pantothenate synthetase (Mycobacterium tuberculosis (strain ATCC 25618 / H37Rv))
Protocol: Coupled enzyme confirmation of inhibitors against recombinant Mtb PanC (AID 375);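 note: 0% = full reaction with vehicle and 100% = no enzyme background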
Condition summary: coupled enzyme assay; at 10 µM, stronger effect = higher value

Compound: O=C(Nc1ccc2[nH]c3c(c2c1)CCCC3)c1ccco1
inhibition / %: 0
--
Compound: Cc1cccc(N2C(=O)CC(N3CCN(Cc4ccc(Cl)cc4)CC3)C2=O)c1 (stereo unspecified)
inhibition / %: 0
--
Compound: O=C1CCCC2=C1C1(CCCC1)N=C(Nc1nc3ccccc3s1)N2
inhibition / %: 10
--
Compound: CS(=O)(=O)N(CC(=O)NC1CC1)c1cccc(F)c1
inhibition / %: 0
--
Compound: CC1=C(C(=O)N2CCCCC2)C(c2cccs2)C2=C(CCCC2=O)N1 (stereo unspecified)
inhibition / %: 0
--
Compound: COC(=O)c1ccc(-c2nn(C)c(=O)c3ccccc23)cc1
inhibition / %: 0

---

Reported values of inhibition for individual entries
Target: Pantothenate synthetase (Mycobacterium tuberculosis (strain ATCC 25618 / H37Rv))
Protocol: Coupled enzyme confirmation of inhibitors against recombinant Mtb PanC (AID 375);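 note: 0% = full reaction with vehicle and 100% = no enzyme background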
Condition summary: coupled enzyme assay; at 10 µM, stronger effect = higher value
Property name: inhibition (%)

Compound: Cc1ccccc1C(=O)Nc1c(C(=O)N2CCCC2)cnn1-c1ccccc1
Experimental result: 8
--
Compound: CCCn1c(OC)nc2c1c(=O)n(C)c(=O)n2C
Experimental result: 0
--
Compound: S=C(c1cccs1)N1CCCC1
Experimental result: 0
--
Compound: CCC(Sc1nc2n[nH]c(C)c2c(=N)n1-c1cc(Cl)ccc1C)C(=O)N1CCOCC1 (configuration not stated)
Experimental result: 0
--
Compound: Cc1cccc(C2=NCC(=O)N(CC(=O)NCc3ccco3)c3sc4c(c32)CCCC4)c1
Experimental result: 8
--
Compound: Cc1nc2c(-c3ccccc3)c(C)[nH]n2c(=O)c1Cl
Experimental result: 0
--
Compound: CC1CCCC(C)N1C(=O)COC(=O)c1ccc[nH]c1=O (configuration not stated)
Experimental result: 0
--
Compound: COc1ccccc1CN1C(=O)CCC1(C)C(=O)NC1CCCCCC1 (configuration not stated)
Experimental result: 8
--
Compound: CCOC(=O)C1CCCn2c1nc1sc3c(c1c2=O)CCCC3 (configuration not stated)
Experimental result: 0
--
Compound: CC(=O)c1ccc(NS(=O)(=O)c2ccccc2)cc1
Experimental result: 0
--
Compound: O=C1CC(N2CCC(C(=O)N3CCCCC3)CC2)C(=O)N1 (configuration not stated)
Experimental result: 11
--
Compound: c1ccc(-c2cn3cccnc3n2)cc1
Experimental result: 0
